molecular target: Recombinant human his-tagged IGF R extracellular domain protein (human) (UniProt P08069); test: SPR, Ab captured via anti-huIgG Fc, dissociation at pH 6
Each entry below carries its reported kon.
measured_metric: kon (M⁻¹ s⁻¹)

binder="VRDN-02049 (antibody, V domains shown) VH: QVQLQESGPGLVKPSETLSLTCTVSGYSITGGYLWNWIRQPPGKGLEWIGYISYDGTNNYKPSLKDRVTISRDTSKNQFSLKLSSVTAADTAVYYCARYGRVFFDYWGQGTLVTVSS VL: DIVMTQSPLSLPVTPGEPASISCRSSQSIVHSNGNTYLQWYLQKPGQSPQLLIYKVSNRHYGVPDRFSGSGSGTDFTLKISRVEAEDVGVYYCFQGSHVPWTFGQGTKVEIK" recorded_measurement=79500
binder="VRDN-02037 (antibody, V domains shown) VH: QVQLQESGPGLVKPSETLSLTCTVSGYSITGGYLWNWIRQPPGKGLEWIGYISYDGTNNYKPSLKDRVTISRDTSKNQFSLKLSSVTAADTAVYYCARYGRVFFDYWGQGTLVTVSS VL: DIVMTQSPLSLPVTPGEPASISCRSSQSIVHSHGNTYLQWYLQKPGQSPQLLIYKVSNRLYGVPDRFSGSGSGTDFTLKISRVEAEDVGVYYCFQGSHVPWTFGQGTKVEIK" recorded_measurement=70000
binder="VRDN-02027 (antibody, V domains shown) VH: QVQLQESGPGLVKPSETLSLTCTVSGYSITGGYLWNWIRQPPGKGLEWIGYISYDGTNNYKPSLKDRVTISRDTSKNQFSLKLSSVTAADTAVYYCARYGRVFFHYWGQGTLVTVSS VL: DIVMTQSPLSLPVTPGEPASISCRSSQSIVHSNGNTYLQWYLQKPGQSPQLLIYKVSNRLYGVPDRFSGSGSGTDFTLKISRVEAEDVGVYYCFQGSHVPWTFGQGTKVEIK" recorded_measurement=42600
